- Test system: NCI-H1944;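 also: CTB read-out in 384-well plates, triplicate wells, NPI normalised per plate against 1 µM phenylarsine oxide (0) and 0.1% DMSO (1) controls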
- RUN DESCRIPTION: normalised cell viability (NPI; 0 = phenylarsine oxide control, 1 = DMSO control) (fraction of DMSO control); NCI-H1944 is a non-small cell lung cancer line; higher = more viable cells (less compound toxicity)
- EXPERIMENTAL SETUP: glucocorticoid arm: hydrocortisone 2.75 uM co-treatment; compound 1 µM; 6 days
In all, about 1,900 compounds were measured (“normalised cell viability (NPI; 0 = phenylarsine oxide control, 1 = DMSO control)”: median about 1, lowest 2% from about 0.039 on). The full list was thinned out, with the lowest values kept by preference.
Lab note: compare normalised cell viability with 1, writing Y if less and N if equal or more.

Ask: # strict comparison: is reported normalised cell viability < 1? input = c1ccc2c(c1)[I+]c1ccccc1-2 [Diphenyleneiodonium chloride]
Result: Y

Ask: # strict comparison: is reported normalised cell viability < 1? input = C[C@@H]1O[C@@H](O[C@H]2C[C@@H](O)[C@]3(CO)[C@H]4[C@H](O)C[C@]5(C)[C@@H]([C@@H]6COC(=O)C6)CC[C@]5(O)[C@@H]4CC[C@]3(O)C2)[C@H](O)[C@H](O)[C@H]1O [Dihydroouabain]
Result: N

Ask: # strict comparison: is reported normalised cell viability < 1? input = C/C=C(/C)C(=O)O[C@H]1C(C)=C2[C@H]([C@@H]1OC(=O)CCCCCCC)[C@@](C)(OC(C)=O)C[C@H](OC(=O)CCC)[C@@]1(O)[C@H]2OC(=O)[C@@]1(C)O [Thapsigargin]
Result: Y

Ask: # strict comparison: is reported normalised cell viability < 1? input = C[C@@H]1O[C@@H](O[C@H]2C[C@@H](O)[C@]3(CO)[C@H]4[C@H](O)C[C@]5(C)[C@@H](C6=CC(=O)OC6)CC[C@]5(O)[C@@H]4CC[C@]3(O)C2)[C@H](O)[C@H](O)[C@H]1O [Ouabain]
Result: Y
